// provenance: ChEMBL document CHEMBL1156725

Recorded log10 IC50, one value per entry.
- EXPERIMENTAL SYSTEM: DNA-dependent protein kinase catalytic subunit (Homo sapiens)
- Sequence (P78527 whole entry): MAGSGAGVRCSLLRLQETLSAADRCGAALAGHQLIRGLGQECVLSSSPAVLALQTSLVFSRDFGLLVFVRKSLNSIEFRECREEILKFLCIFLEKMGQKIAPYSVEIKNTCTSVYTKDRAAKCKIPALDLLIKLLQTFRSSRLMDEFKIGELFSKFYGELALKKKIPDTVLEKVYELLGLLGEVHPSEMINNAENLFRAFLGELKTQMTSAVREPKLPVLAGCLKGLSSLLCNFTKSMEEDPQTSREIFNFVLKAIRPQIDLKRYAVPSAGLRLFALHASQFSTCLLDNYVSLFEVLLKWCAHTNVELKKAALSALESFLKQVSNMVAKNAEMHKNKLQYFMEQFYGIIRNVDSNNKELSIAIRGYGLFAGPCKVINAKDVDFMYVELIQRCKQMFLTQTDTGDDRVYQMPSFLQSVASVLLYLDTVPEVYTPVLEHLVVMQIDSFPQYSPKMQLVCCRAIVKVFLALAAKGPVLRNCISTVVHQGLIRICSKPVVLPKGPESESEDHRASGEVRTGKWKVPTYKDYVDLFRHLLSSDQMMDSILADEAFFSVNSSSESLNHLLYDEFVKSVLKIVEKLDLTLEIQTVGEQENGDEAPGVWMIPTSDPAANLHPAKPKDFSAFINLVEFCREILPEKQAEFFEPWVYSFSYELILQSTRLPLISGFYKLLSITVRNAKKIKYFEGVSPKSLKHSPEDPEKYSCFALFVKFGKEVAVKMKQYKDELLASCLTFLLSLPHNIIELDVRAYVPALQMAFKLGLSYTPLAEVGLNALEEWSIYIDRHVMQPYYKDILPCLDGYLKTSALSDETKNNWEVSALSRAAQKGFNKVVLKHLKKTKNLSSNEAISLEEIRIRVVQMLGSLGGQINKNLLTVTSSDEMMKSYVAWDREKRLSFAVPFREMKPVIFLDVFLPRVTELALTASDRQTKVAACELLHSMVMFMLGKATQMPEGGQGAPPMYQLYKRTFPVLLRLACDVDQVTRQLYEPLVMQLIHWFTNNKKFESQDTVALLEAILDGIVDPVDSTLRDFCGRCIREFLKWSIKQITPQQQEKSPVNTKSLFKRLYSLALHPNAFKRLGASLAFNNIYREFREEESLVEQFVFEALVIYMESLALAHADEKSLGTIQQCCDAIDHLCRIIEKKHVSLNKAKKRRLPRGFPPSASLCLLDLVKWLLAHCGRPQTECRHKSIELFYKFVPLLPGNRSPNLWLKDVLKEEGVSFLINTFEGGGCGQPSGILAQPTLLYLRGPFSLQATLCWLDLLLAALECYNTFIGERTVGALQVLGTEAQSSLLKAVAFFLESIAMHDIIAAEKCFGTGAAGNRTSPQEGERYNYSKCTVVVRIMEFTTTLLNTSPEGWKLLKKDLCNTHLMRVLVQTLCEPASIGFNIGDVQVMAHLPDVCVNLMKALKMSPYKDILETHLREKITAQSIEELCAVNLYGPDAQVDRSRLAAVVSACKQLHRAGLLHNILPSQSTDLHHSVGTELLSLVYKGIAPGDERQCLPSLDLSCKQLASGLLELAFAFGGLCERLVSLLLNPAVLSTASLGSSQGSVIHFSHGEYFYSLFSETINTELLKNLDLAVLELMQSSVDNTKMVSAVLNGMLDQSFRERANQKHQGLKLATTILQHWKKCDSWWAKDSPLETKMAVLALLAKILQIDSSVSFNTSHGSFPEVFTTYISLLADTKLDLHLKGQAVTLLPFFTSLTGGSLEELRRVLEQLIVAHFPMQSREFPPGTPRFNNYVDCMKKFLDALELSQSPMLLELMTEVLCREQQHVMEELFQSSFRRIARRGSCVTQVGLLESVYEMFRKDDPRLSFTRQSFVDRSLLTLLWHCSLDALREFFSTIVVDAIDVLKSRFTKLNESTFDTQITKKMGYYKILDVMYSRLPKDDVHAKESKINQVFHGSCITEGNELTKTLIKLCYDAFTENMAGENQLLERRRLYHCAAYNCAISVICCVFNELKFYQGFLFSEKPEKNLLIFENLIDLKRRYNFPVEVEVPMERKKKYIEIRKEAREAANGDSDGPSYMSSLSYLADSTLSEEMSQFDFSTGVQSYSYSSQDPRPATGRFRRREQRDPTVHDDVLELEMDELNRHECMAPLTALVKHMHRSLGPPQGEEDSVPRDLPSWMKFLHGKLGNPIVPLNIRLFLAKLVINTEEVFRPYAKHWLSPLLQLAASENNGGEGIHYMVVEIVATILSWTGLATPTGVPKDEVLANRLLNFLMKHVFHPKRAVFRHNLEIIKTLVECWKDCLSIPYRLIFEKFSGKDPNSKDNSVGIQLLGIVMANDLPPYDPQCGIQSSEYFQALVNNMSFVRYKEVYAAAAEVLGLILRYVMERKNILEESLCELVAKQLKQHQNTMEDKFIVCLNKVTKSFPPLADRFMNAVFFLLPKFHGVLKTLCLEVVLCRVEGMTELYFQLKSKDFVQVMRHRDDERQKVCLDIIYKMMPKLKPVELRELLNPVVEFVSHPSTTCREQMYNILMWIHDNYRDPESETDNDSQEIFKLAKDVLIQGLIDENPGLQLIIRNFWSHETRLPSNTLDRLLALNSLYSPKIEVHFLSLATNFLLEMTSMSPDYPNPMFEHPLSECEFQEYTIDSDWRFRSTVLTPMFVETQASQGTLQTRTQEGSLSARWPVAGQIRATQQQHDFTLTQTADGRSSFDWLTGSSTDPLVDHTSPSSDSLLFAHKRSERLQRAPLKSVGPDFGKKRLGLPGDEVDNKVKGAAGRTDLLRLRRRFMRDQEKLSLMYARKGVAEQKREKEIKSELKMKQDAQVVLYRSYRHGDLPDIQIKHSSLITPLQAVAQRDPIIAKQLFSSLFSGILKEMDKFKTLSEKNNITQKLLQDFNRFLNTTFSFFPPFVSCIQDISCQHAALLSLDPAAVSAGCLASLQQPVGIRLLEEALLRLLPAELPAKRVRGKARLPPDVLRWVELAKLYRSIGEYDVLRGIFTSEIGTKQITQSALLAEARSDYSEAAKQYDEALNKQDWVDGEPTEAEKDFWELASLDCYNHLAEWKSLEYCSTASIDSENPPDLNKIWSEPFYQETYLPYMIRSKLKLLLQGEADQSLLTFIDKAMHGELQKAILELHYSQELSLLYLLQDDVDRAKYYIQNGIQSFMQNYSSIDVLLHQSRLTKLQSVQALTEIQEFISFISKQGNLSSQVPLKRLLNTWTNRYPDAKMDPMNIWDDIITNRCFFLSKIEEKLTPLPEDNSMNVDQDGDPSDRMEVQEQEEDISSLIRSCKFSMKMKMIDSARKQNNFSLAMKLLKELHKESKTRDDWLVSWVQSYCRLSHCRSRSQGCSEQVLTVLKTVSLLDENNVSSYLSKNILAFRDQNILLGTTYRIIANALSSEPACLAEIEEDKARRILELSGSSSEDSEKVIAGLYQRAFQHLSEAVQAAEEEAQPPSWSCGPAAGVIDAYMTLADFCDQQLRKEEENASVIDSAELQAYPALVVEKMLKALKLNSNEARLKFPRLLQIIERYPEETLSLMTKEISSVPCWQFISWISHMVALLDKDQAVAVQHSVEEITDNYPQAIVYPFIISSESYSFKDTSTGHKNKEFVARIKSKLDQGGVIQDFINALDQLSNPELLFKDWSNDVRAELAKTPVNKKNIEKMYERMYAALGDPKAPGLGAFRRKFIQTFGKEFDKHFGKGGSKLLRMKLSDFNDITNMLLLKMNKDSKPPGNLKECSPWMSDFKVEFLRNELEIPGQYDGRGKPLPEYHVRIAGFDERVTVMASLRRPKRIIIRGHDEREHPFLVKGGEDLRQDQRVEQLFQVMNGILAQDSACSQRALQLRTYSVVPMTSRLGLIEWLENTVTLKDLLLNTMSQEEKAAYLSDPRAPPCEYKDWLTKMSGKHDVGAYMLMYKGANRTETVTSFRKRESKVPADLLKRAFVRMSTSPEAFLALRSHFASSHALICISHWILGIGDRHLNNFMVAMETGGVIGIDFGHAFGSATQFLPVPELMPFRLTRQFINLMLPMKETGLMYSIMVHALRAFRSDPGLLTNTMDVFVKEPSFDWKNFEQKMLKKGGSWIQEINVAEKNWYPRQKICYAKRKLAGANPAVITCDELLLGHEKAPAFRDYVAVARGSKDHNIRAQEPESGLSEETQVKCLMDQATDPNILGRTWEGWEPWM
- ASSAY: Inhibition of DNA-dependent protein kinase
Lab note - IC50 converted to log10 from values in nM.

Sample records with log10 IC50:
NCc1ccc(-c2cccc(-c3cccc4c(=O)cc(N5CCOCC5)oc34)c2)cc1    3.28
O=c1cc(N2CCOCC2)oc2c(-c3cccc(-c4cncnc4)c3)cccc12    3.20
Cn1ccnc1-c1cccc(-c2cccc3c(=O)cc(N4CCOCC4)oc23)c1    3.48

log10 IC50 reading for Cc1ccsc1-c1cccc(-c2cccc3c(=O)cc(N4CCOCC4)oc23)c1 : 2.56

log10 IC50 reading for O=c1cc(N2CCOCC2)oc2c(-c3cccc(-c4ccc(O)cc4)c3)cccc12 : 2.15

log10 IC50 reading for O=c1cc(N2CCOCC2)oc2c(-c3cccc(-c4ccncc4)c3)cccc12 : 2.71

log10 IC50 reading for Cc1cc(-c2cccc(-c3cccc4c(=O)cc(N5CCOCC5)oc34)c2)cs1 : 3.05
